The measured values listed here are drawn from ChEMBL document CHEMBL1142444.

target-system: Muscarinic acetylcholine receptor M4 (Homo sapiens)
Sequence (P08173 whole entry): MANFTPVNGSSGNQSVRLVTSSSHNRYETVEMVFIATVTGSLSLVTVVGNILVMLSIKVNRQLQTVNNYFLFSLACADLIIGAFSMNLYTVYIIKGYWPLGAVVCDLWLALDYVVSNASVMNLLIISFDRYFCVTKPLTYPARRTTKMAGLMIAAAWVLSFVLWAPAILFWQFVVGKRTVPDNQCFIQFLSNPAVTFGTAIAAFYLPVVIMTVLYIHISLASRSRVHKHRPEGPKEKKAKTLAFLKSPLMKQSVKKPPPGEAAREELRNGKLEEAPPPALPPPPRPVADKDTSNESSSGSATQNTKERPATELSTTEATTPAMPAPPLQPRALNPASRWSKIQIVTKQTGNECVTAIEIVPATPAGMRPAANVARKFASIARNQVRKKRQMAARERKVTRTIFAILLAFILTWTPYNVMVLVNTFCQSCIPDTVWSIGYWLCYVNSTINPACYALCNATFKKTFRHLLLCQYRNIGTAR
assay-explanation: Agonist activity at muscarinic M4 receptor

structure-string | EC50
O=c1[nH]c2ccc(F)cc2n1C1CCN(C2CCN(Cc3ccccc3C(F)(F)F)CC2)CC1 | > 50 µM
O=c1[nH]c2cc(Cl)ccc2n1C1CCN(C2CCN(Cc3ccccc3)CC2)CC1 | > 50 µM
N#Cc1ccccc1CN1CCC(N2CCC(n3c(=O)[nH]c4ccccc43)CC2)CC1 | > 50 µM
Cc1ccccc1CN1CCC(N2CCC(n3c(=O)[nH]c4cc(Cl)ccc43)CC2)CC1 | > 50 µM
O=c1[nH]c2ccccc2n1C1CCN(C2CCN(Cc3ccccc3Cl)CC2)CC1 | > 50 µM
Cc1ccccc1CN1CCC(N2CCC(n3c(=O)[nH]c4cc(F)ccc43)CC2)CC1 | > 50 µM
Cc1ccccc1CN1CCC(N2CCC(n3c(=O)[nH]c4c(F)cccc43)CC2)CC1 | > 50 µM
O=c1[nH]c2cc(F)ccc2n1C1CCN(C2CCN(Cc3ccccc3C(F)(F)F)CC2)CC1 | > 50 µM
O=c1[nH]c2cc(Cl)ccc2n1C1CCN(C2CCN(Cc3ccccc3[N+](=O)[O-])CC2)CC1 | > 50 µM
O=c1[nH]c2ccccc2n1C1CCN(C2CCN(Cc3ccccc3[N+](=O)[O-])CC2)CC1 | > 50 µM
O=c1[nH]c2cc(Cl)ccc2n1C1CCN(C2CCN(Cc3ccccc3C(F)(F)F)CC2)CC1 | > 50 µM
O=c1[nH]c2cc(Cl)ccc2n1C1CCN(C2CCN(Cc3ccccc3Cl)CC2)CC1 | > 50 µM
